Every entry's value here was drawn from ChEMBL document CHEMBL3886376.

# MEASUREMENT TARGET: Serine/threonine-protein kinase pim-1 (Homo sapiens, UniProt P11309)
# ASSAY NAME: PIM Enzyme Assay: The assay for the determination of Pim activity is based on the formation of phosphorylated biotinylated-BAD peptide at the Serine 112 residue (S112) and employs HTRF (homogeneous time resolved fluorescence) technology to detect the product in a 96-well plate format. The phosphorylation of biotinylated-BAD (S112) peptide by full length recombinant Pim-1, Pim-2, or Pim-3 protein was detected with streptavidin:Allophycocyanin (APC) conjugate and a europium (Eu) labeled antibody directed against phosphorylated-BAD (S112). Excitation of Eu by a high energy laser light (337 nm) leads to a transfer of energy to the APC molecule, and results in an emission at 665 nm. The fluorescence is directly proportional to the amount of phosphorylated BAD peptide present in the reaction.Compounds were prepared in DMSO by conducting 3-fold serial dilutions to give a 10-point dosing curve having a high dose of 1 uM. A reference compound was included on each assay plate in order to validate that plate.
PROPERTY MEASURED: pIC50
The meaning of pIC50 here: minus log10 of the concentration in molar units.

Please give the documented pIC50 of N[C@H]1CCC[C@@H](c2ccncc2Nc2ncc3ccc(-c4c(F)cccc4F)nn23)C1 (mixture of isomers) 8.40
